Assay: reduction of polyQ htt aggregates in cells – imaging, exon1htt(103Q)mCFP cells, high-content imaging, primary screen (AID 483);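 note: compound exposure lasted 3 days before fixation; percent of the per-plate median nuclei count of sample wells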
Details: exon1htt(103Q)mCFP cell line, aggregate imaging, at 2 µM; measured here: cell count, toxicity
reported.property: nuclei count (%)

- molecule: "COCCCNC(=O)CC(NS(=O)(=O)c1ccc(Cl)cc1)c1ccco1 (stereo unspecified)"
  observed: 112
- molecule: "Cc1cccc(NC(=O)c2cc3n(n2)C(C(F)(F)F)CC(c2ccc4c(c2)OCO4)N3)c1 (stereo unspecified)"
  observed: 82.7
- molecule: "CCN(CC)C(=O)c1ccc(NS(=O)(=O)c2ccccc2)cc1"
  observed: 112
- molecule: "O=C(NC1CCCc2ccccc21)C1CCN(S(=O)(=O)c2cnc[nH]2)CC1 (stereo unspecified)"
  observed: 98.8
- molecule: "Cc1ccc(S(=O)(=O)N(C)Cc2cc3ccccc3[nH]c2=O)cc1"
  observed: 99.8
- molecule: "CCCc1nc2ccccc2c2nc(N)nn12"
  observed: 82.1
- molecule: "COc1ccc(NC(=O)Nc2cc(C)ccc2OC)cc1"
  observed: 98.6
- molecule: "ON1C2CCCCC2N(O)C1c1c(F)c(F)c(F)c(F)c1F (stereo unspecified)"
  observed: 105
- molecule: "Cc1cc(C)n(-c2nc(C)nc3c2cnn3-c2ccccc2)n1"
  observed: 97.3
- molecule: "Cc1cccc(N2CCN(S(=O)(=O)c3ccc4c(c3)CCC(=O)N4)CC2C)c1 (stereo unspecified)"
  observed: 123
- molecule: "COCC(=O)N(Cc1nc2ccccc2c(=O)[nH]1)Cc1cccs1"
  observed: 105
- molecule: "CCCN1C2=C(C(=O)CCC2)C(c2ccc(O)c(Br)c2)C2=C1CCCC2=O"
  observed: 97.2
- molecule: "O=C(CN1CCC(n2nnc3cc(F)ccc32)CC1)Nc1ccc2c(c1)CCC2"
  observed: 112
- molecule: "Cc1ccc(-c2nnn(CC(=O)N(CC(=O)NCC3CCCO3)c3ccccc3)n2)o1 (stereo unspecified)"
  observed: 85.7
- molecule: "COCCCn1c(SCC(=O)N2CCc3ccccc32)nnc1-c1ccoc1C"
  observed: 56.1
- molecule: "Cc1nc(C)c(C(=O)Nc2ccc(C)c(F)c2)o1"
  observed: 97.5
- molecule: "CCc1ccccc1NC(=O)CN(c1cccc(OC)c1)S(C)(=O)=O"
  observed: 99
- molecule: "O=C1CC(c2ccco2)CC(O)=C1C=NCC1NCCc2ccccc21 (stereo unspecified)"
  observed: 94.2
- molecule: "CN1CCCc2cc(C#N)c(=O)[nH]c21"
  observed: 108
- molecule: "CC(C)(C)n1nnnc1C(c1cccc(C#N)c1)N1CCC(Cc2ccccc2)CC1 (stereo unspecified)"
  observed: 81.1
- molecule: "N#Cc1c(NC(=O)COC(=O)C2CC3C=CC2C3)oc(-c2ccccc2)c1-c1ccccc1 (stereo unspecified)"
  observed: 95.7
- molecule: "Cn1cccc1C(=O)NC(=O)CSc1nnc(C2CC2)n1-c1ccccc1"
  observed: 93.6
- molecule: "CN(C)C(=O)Oc1ccc[n+](C)c1"
  observed: 104
- molecule: "CCc1cc2c(NCCC(=O)O)ncnc2s1"
  observed: 103
- molecule: "O=c1c2cn[nH]c2nc(SCc2ccc3c(c2)OCCO3)n1-c1ccccc1"
  observed: 112
- molecule: "O=C(CN(c1ccccc1)S(=O)(=O)c1ccccc1)N1CCN(Cc2ccc3c(c2)OCO3)CC1"
  observed: 122
- molecule: "COCCn1c(NCc2ccc(C)cc2)nc2c1c(=O)[nH]c(=O)n2C"
  observed: 91.9
- molecule: "COC(=O)c1[nH]c2ccccc2c1NC(=O)CN1CCC(C(N)=O)(N2CCCCC2)CC1"
  observed: 72.7
- molecule: "Cc1[nH]c(=O)[nH]c(=O)c1S(=O)(=O)Nc1ccc(Oc2ccccc2)cc1"
  observed: 117
- molecule: "O=C(c1ccco1)N1CCN(C(=O)c2ccc(Cn3cc(Br)cn3)o2)CC1"
  observed: 102
- molecule: "O=C(C1CC1)N(Cc1ccco1)c1nc(-c2ccccc2)cs1"
  observed: 104

====

Molecular target: Voltage-gated potassium channel subunit beta-2 (Rattus norvegicus) (UniProt P62483)
Sequence (P62483 whole entry, looked up): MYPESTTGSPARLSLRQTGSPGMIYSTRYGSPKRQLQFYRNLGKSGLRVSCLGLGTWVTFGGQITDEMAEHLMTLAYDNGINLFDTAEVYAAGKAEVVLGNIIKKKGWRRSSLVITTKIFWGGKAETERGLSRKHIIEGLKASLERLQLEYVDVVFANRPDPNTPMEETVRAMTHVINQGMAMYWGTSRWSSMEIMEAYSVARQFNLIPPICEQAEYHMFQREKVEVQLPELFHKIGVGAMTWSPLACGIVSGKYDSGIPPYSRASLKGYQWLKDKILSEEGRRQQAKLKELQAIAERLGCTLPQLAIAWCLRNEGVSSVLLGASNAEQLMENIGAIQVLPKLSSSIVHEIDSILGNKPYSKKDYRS
Experiment: enhancers of rat Kvbeta2 NADPH turnover – biochemical, NADPH fluorescence, primary screen (AID 623);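 note: fluorescence intensity change per second fitted from 20 to 320 s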
Conditions: Recombinant KvBeta, NADPH fluorescence decrease slope, 10 min; at 10 µM; stronger effect = lower value

- compound: "Cc1ccc(S(=O)(=O)N(C)CC(=O)NC2CC(C)(C)NC(C)(C)C2)cc1"
  NADPH fluorescence slope: "-1.8e-05"
- compound: "O=C1c2ccccc2NC(c2ccco2)N1O (stereo unspecified)"
  NADPH fluorescence slope: "-2.1e-05"
- compound: "Cc1ccccc1NC(=O)C1CCN(c2cnccn2)CC1"
  NADPH fluorescence slope: "-1.5e-06"
- compound: "Cc1cc(C(=O)CSCc2nnc3n(CCC(C)C)c(=O)c4ccccc4n23)c(C)n1C"
  NADPH fluorescence slope: "3.1e-06"
- compound: "Cc1cccc(-n2nnc(C(=O)NCc3ccccc3)c2N)c1"
  NADPH fluorescence slope: -0.000212
- compound: "CC1=NS(=O)(=O)c2cc(Cl)ccc2N1"
  NADPH fluorescence slope: "-5.9e-05"
- compound: "CCCc1nc2ccccc2c(=O)n1NC(=O)c1c(O)c2cccc3c2n(c1=O)CCC3"
  NADPH fluorescence slope: -0.000105
- compound: "O=C(CNS(=O)(=O)c1ccc(Br)s1)N1CCCC1"
  NADPH fluorescence slope: "-9.6e-06"
- compound: "COc1cccc(-n2c(C)nc3c(cnn3-c3ccc(Cl)cc3)c2=O)c1"
  NADPH fluorescence slope: "7.6e-06"
- compound: "CCCCN(CCCNC(=O)C1CCN(S(=O)(=O)CC)CC1)c1ccccc1"
  NADPH fluorescence slope: "2.9e-05"
- compound: "COC(=O)Nc1ccc(S(=O)(=O)N(C)CC(F)(F)C(F)F)cc1"
  NADPH fluorescence slope: "3.2e-05"

====

Target: Voltage-gated potassium channel subunit beta-2 (Rattus norvegicus) (UniProt P62483)
Assay: enhancers of rat Kvbeta2 NADPH turnover – biochemical, NADPH fluorescence, primary screen (AID 623);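 note: fluorescence intensity change per second fitted from 20 to 320 s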
Details: Recombinant KvBeta, NADPH fluorescence decrease slope, 10 min; at 10 µM; stronger effect = lower value
// NADPH fluorescence slope lookup, one value per entry
reported.property: NADPH fluorescence slope

- molecule: "O=C(c1ccc2c(c1)OCO2)N1CCNc2ccccc2C1"
  observed: "-3.1e-05"
- molecule: "CCOc1ccc2nc(S(N)(=O)=O)sc2c1"
  observed: "-5.5e-05"
- molecule: "COc1cc(Cn2c(C(=O)O)cc3sccc32)cc(OC)c1OC"
  observed: -0.000122
- molecule: "O=C(CSc1nc2ccc(Cl)cc2[nH]1)NCc1ccco1"
  observed: "1.5e-05"
- molecule: "Cn1cccc1-c1nc2ccc(NC(=O)c3ccco3)cc2[nH]1"
  observed: "1e-06"
- molecule: "CCCCc1ccc(NC(=O)COCC)cc1"
  observed: "1.7e-05"
- molecule: "COc1cc(-c2nnc(SCC(=O)c3ccc(C)cc3)o2)cc(OC)c1OC"
  observed: "2.5e-05"
- molecule: "CCOC(=O)c1ccc(NC(=O)N2CCN(CCc3ccccc3)CC2)cc1"
  observed: "-4.1e-05"
- molecule: "O=S(=O)(c1ccc(OCC(O)CN2CCc3ccccc3C2)cc1)N1CCOCC1 (centres undefined)"
  observed: "1.9e-05"
- molecule: "C[C@H]1C[C@H]2[C@@H]3CCC4=CC(=O)C=C[C@]4(C)[C@@]3(Cl)[C@@H](O)C[C@]2(C)[C@@]1(O)C(=O)CO"
  observed: "-7.9e-05"
- molecule: "Cc1c(/C(O)=C2/C(=O)C(=O)N(CCN3CCOCC3)C2c2cccs2)cnn1-c1ccccc1 (centres undefined)"
  observed: -0.000209
- molecule: "O=C(NC1CCCC1)c1c[nH]c2ccc(F)cc2c1=O"
  observed: "-1.4e-05"
- molecule: "Cc1cc(C)c2c(n1)sc1c(N3CCOCC3)ncnc12"
  observed: "-6.3e-05"
- molecule: "CC(C(=O)N1CCOCC1)N1c2cccc3cccc(c23)S1(=O)=O (centres undefined)"
  observed: "-2.9e-05"
- molecule: "CCN1CCN(Cc2ccc(NC(=O)Nc3ccc(SC)cc3)cc2)CC1"
  observed: "-3.4e-05"
- molecule: "CN(c1cccc(NC(=O)COc2ccccc2)c1)S(C)(=O)=O"
  observed: "6.4e-05"
- molecule: "N#CC1=C(N)Oc2n[nH]c(-c3ccncc3)c2C1c1ccsc1 (centres undefined)"
  observed: "1.9e-05"
- molecule: "COc1ccc(Cn2c(=O)[nH]c3cc(C(=O)NCCCN4CCCC4)ccc3c2=O)cc1"
  observed: "-1.4e-05"
- molecule: "C=CCSc1nc2c(c(=O)[nH]c(=O)n2C)n1C(C)C"
  observed: "8.7e-06"
- molecule: "O=c1c(O)c(-c2ccc(O)cc2O)oc2cc(O)cc(O)c12"
  observed: -0.000116
- molecule: "Cc1cnc(C(=O)NCCc2ccc(S(=O)(=O)NC(=O)NC3CCCCC3)cc2)cn1"
  observed: "8e-06"
- molecule: "C1CCC2=NCCCN2CC1"
  observed: "4.2e-05"
- molecule: "CCC(C)NC(=O)C1(C)CCC(=O)N1Cc1ccccc1OC (centres undefined)"
  observed: 0.000141
- molecule: "N#Cc1c(SCC(=O)N2CCOCC2)nsc1SCC(=O)N1CCOCC1"
  observed: "-2.7e-05"
